- TGT: Transient receptor potential cation channel subfamily V member 1 (Homo sapiens) (UniProt Q8NER1)
- Sequence (Q8NER1 whole entry): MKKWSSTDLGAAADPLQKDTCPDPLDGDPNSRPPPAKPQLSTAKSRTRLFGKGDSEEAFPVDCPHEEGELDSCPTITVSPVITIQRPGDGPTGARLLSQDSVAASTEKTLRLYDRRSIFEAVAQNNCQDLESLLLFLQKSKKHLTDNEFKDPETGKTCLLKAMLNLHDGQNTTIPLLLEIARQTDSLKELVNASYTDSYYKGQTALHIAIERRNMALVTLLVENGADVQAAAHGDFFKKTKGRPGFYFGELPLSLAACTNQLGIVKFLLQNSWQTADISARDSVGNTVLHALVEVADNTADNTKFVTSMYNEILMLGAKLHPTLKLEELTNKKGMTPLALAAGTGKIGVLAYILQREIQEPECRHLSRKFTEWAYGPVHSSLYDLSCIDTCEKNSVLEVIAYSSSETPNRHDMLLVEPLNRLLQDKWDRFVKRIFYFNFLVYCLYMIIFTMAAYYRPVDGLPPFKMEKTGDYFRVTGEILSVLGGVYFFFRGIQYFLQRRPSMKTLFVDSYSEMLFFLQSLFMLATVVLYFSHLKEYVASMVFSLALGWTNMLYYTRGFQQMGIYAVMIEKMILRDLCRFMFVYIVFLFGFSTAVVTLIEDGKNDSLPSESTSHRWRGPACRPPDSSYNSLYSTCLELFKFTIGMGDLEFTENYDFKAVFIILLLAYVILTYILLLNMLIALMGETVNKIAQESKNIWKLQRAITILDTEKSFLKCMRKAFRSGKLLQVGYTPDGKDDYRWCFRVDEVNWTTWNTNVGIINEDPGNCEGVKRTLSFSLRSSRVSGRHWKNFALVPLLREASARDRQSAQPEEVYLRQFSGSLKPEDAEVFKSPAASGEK
- ASSAY_OVERVIEW: Agonist activity at human TRPV1 expressed HEK293 cells assessed as calcium mobilization at 10 uM
- Type: functional, cell-based
The threshold is inclusive: Activity of exactly 20% counts as T; values below receive F.

> print(dat)
                                   molecule  assigned.label
1  CC/C=C/C/C=C/C/C=C/C/C=C/C/C=C/C/C=C/CCC(=O)N1CCc2cc(O)c(O)cc2C1C (stereo not given)               T
2  CCCCC/C=C/C/C=C/C/C=C/C/C=C/CCCC(=O)N1CCc2cc(O)c(O)cc2C1C (stereo not given)               T
3  CCCCC/C=C/C/C=C/CCCCCCCC(=O)N1CCc2cc(O)c(O)cc2C1C (stereo not given)               T
4  CCCCC/C=C/C/C=C/C/C=C/C/C=C/CCCC(=O)N1CCc2cc(OC)c(O)cc2C1C (stereo not given)               F
5  CCCCC/C=C/C/C=C/CCCCCCCC(=O)N1CCc2cc(OC)c(O)cc2C1C (stereo not given)               F

###

- TGT: Transient receptor potential cation channel subfamily V member 1 (Homo sapiens)
- ASSAY_OVERVIEW: Agonist activity at human TRPV1 expressed HEK293 cells assessed as reduction of capsaicin-induced calcium mobilization at 1 uM
- Type: functional, cell-based
- Design: scale not given: the % may be the effect or the level left
Field: label. Allowed values: met (Activity < 40%) or not met (Activity >= 40%).

> print(dat)
                                   compound                                       tgt  assigned.label
1  CCCCC/C=C/C/C=C/CCCCCCCC(=O)N1CCc2cc(O)c(O)cc2C1C (stereo unspecified)  Transient receptor potential cation channel subfamily V member 1 (Homo sapiens)             met
2  CC/C=C/C/C=C/C/C=C/C/C=C/C/C=C/C/C=C/CCC(=O)N1CCc2cc(O)c(O)cc2C1C (stereo unspecified)  Transient receptor potential cation channel subfamily V member 1 (Homo sapiens)         not met
3  CCCCC/C=C/C/C=C/CCCCCCCC(=O)N1CCc2cc(OC)c(O)cc2C1C (stereo unspecified)  Transient receptor potential cation channel subfamily V member 1 (Homo sapiens)             met
4  CC/C=C/C/C=C/C/C=C/C/C=C/C/C=C/C/C=C/CCC(=O)N1CCc2cc(OC)c(O)cc2C1C (stereo unspecified)  Transient receptor potential cation channel subfamily V member 1 (Homo sapiens)             met
5  CCCCC/C=C/C/C=C/C/C=C/C/C=C/CCCC(=O)N1CCc2cc(OC)c(O)cc2C1C (stereo unspecified)  Transient receptor potential cation channel subfamily V member 1 (Homo sapiens)             met
